# Tested on: S. aureus 105
# CONDITION: S. aureus 105; MHB (melimine/Mel4 with 0.2% BSA, 0.01% acetic acid); mean MIC
Square brackets hold non-standard residues; d marks the D form. Peptide text beside a SMILES is read from it. Nspe(4-Br) = C[C@H](NCC(=O)O)c1ccc(Br)cc1; N(tridecyl)Gly = CCCCCCCCCCCCCNCC(=O)O; Nspe = C[C@H](NCC(=O)O)c1ccccc1; NDecylGly = CCCCCCCCCCNCC(=O)O; Nlys = NCCCCNCC(=O)O
This listing pairs molecules with measured MIC of peptidomimetics.
Please state the figure in µg/mL; there is no need to write the unit.

| MOLECULE | VAL |
| --- | --- |
| CCCCCCCCCCCCCNCC(=O)N(CCCCN)CC(=O)N(CC(=O)N(CC(=O)N(CCCCN)CC(=O)N(CCCCN)CC(N)=O)[C@@H](C)c1ccccc1)[C@@H](C)c1ccccc1 [TM15] (H-[N(tridecyl)Gly][Nlys][Nspe][Nspe][Nlys][Nlys]-NH2) | 7.8 |
| C[C@@H](c1ccc(Br)cc1)N(CC(N)=O)C(=O)CN(C(=O)CN(CCCCN)C(=O)CN(C(=O)CN(C(=O)CNCCCCN)[C@@H](C)c1ccccc1)[C@@H](C)c1ccc(Br)cc1)[C@@H](C)c1ccccc1 [TM2] (H-[Nlys][Nspe][Nspe(4-Br)][Nlys][Nspe][Nspe(4-Br)]-NH2) | 7.8 |
| C[C@@H](c1ccc(Br)cc1)N(CC(=O)N(CCCCN)CC(=O)N(CC(=O)N(CC(=O)N(CCCCN)CC(N)=O)[C@@H](C)c1ccc(Br)cc1)[C@@H](C)c1ccccc1)C(=O)CN(C(=O)CNCCCCN)[C@@H](C)c1ccccc1 [TM12] (H-[Nlys][Nspe][Nspe(4-Br)][Nlys][Nspe][Nspe(4-Br)][Nlys]-NH2) | 7.8 |
| CCCCCCCCCCNCC(=O)N(CCCCN)CC(=O)N(CC(=O)N(CC(=O)N(CCCCN)CC(=O)N(CC(=O)N(CC(N)=O)[C@@H](C)c1ccccc1)[C@@H](C)c1ccccc1)[C@@H](C)c1ccccc1)[C@@H](C)c1ccccc1 [TM8] (H-[NDecylGly][Nlys][Nspe][Nspe][Nlys][Nspe][Nspe]-NH2) | 3.9 |
| C[C@@H](c1ccccc1)N(CC(N)=O)C(=O)CN(CCCCN)C(=O)CN(C(=O)CN(C(=O)CN(CCCCN)C(=O)CN(C(=O)CN(C(=O)CN(CCCCN)C(=O)CN(C(=O)CN(C(=O)CNCCCCN)[C@@H](C)c1ccccc1)[C@@H](C)c1ccccc1)[C@@H](C)c1ccccc1)[C@@H](C)c1ccccc1)[C@@H](C)c1ccccc1)[C@@H](C)c1ccccc1 [TM6] (H-[Nlys][Nspe][Nspe][Nlys][Nspe][Nspe][Nlys][Nspe][Nspe][Nlys][Nspe]-NH2) | 7.8 |

Consider the additional molecule presented here.
Inquiry: Could you share which MIC of peptidomimetics value was measured for C[C@@H](c1ccc(Br)cc1)N(CC(=O)N(CCCCN)CC(=O)N(CC(=O)N(CC(=O)N(CCCCN)CC(N)=O)[C@@H](C)c1ccc(Br)cc1)[C@@H](C)c1ccc(Br)cc1)C(=O)CN(C(=O)CNCCCCN)[C@@H](C)c1ccc(Br)cc1 [TM14] (H-[Nlys][Nspe(4-Br)][Nspe(4-Br)][Nlys][Nspe(4-Br)][Nspe(4-Br)][Nlys]-NH2) ?
Reply text: 3.9
